From: PubChem BioAssay (NCI)

Assay: NCI Yeast Anticancer Drug Screen. Data for the bub3 strain (AID 167)
Conditions: S. cerevisiae bub3 mutant strain, at 11.0 µM, active compounds read high
Procedure: Growth inhibition of yeast strains with defined genetic alterations is measured as a screen for potential anti-cancer activity. Selected strains with alterations in DNA damage repair or cell cycle control were exposed to compounds and growth inhibition was measured relative to vehicle treated controls. The strain used in this assay is bub3
This is part of a sample that, as a whole, favours compounds with a hit. Of some 79,000 tested, about 15% had one in any assay.
observable: growth inhibition (%)

compound	observable	numeric.readout
Cc1cccc(C)c1NC(=O)C(C#N)C1=C(Cl)C(=O)c2ccccc2C1=O (stereo unspecified)	growth inhibition	97
COc1ccc2c3c1OC(C)C31CC(=O)CCC1CC2 (stereo unspecified)	growth inhibition	-5
CCCNCC(=O)O[C@]1(CC)C(=O)OCc2c1cc1n(c2=O)Cc2cc3ccccc3nc2-1	growth inhibition	28
c1ccc([P+](CCN2Cc3ccccc3C2)(c2ccccc2)c2ccccc2)cc1	growth inhibition	31
CC1(C)C(O)OC(O)C1(C)C (stereo unspecified)	growth inhibition	-6
COc1ccc2cc3c4cc5c(cc4cc[n+]3cc2c1OC)OCO5	growth inhibition	46
O=C(Cc1ccccc1)NNc1nc(NNC(=O)c2ccncc2)nc(Nc2ccc([N+](=O)[O-])cc2)n1	growth inhibition	11
COc1ccc2nc3cccc([N+](=O)[O-])c3c(NCCNCCN(C)C)c2c1	growth inhibition	3
CN1CCN(C(=O)c2cccc3cccc(C(=O)O)c23)CC1	growth inhibition	16
Cc1cc2nc3ccccc3n2c2ccccc12	growth inhibition	-6
OC(c1ccccc1)(c1ccccc1)c1nccc2ccccc12	growth inhibition	25
